enrichment ratio values, listed per item
B1: PhoQ; a variant is named by its letters at X, in order, P23837 (parent)
chain: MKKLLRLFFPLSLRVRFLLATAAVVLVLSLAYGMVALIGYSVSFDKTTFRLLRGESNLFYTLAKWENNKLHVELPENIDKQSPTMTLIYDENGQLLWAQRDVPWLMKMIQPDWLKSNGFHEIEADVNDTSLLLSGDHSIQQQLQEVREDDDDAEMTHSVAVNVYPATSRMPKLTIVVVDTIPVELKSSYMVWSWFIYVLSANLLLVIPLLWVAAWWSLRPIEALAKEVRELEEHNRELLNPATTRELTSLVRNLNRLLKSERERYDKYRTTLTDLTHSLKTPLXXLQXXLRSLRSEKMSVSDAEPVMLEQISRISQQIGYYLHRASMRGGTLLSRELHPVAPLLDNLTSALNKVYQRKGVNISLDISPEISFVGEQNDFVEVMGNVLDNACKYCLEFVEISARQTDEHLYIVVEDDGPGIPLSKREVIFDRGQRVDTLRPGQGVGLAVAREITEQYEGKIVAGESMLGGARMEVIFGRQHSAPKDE

Variants of: B1
Test: enrichment ratio after two sorts for PhoP signalling (ratio (wild type AVST 3.29)); higher = more functional
Details: with PhoP (E. coli)
Whole data set: some 140,000 sequences, median “enrichment ratio after two sorts for PhoP signalling” near 0, cut for the highest 2% near 11. Shown is part of a subset that was picked to be rich in the highest values.

{"columns": ["VARIANT STRING", "enrichment ratio"],
 "data": [
  ["SVHQ", "≤ 0.25"],
  ["PWAR", "≤ 0.25"],
  ["TWFQ", "≤ 0.25"],
  ["HPWS", "≤ 0.25"],
  ["AVCE", "≤ 0.25"],
  ["KCMH", "≤ 0.25"],
  ["FFLL", "≤ 0.25"],
  ["SVHF", "≤ 0.25"],
  ["KERI", "≤ 0.25"],
  ["KFAE", "≤ 0.25"],
  ["HCRQ", "≤ 0.25"],
  ["FARL", "≤ 0.25"],
  ["KLPK", "≤ 0.25"]
]}
